Quick reference for remaining at 6 h among some molecules
EXPERIMENTAL_PROTOCOL: physchem
Format: physicochemical
EXPERIMENTAL_PARAMETERS: 6 hrs.; 10 μg/ml in dimethylsulfoxide/physiological saline; read-out: Percentage remainder
Provide the reading as a plain figure in %.

Worked examples follow.
C/C=C/C=C/c1cc2cc3c(c(O)c2c(=O)[nH]1)C1(CC3)C(=O)c2c(O)c3c(c(O)c2C1=O)C(=O)C(OC)=CC3=O (stereo not shown) | 64
CCCCCCCCCCCC(=O)Oc1c2c(c(OC(=O)CCCCCCCCCCC)c3c1C(=O)C1(CCc4cc5cc(CCCCC)[nH]c(=O)c5c(O)c41)C3=O)C(=O)C(OC)=CC2=O (stereo not shown) | 92.2
CCCCCc1cc2cc3c(c(O)c2c(=O)[nH]1)C1(CC3)C(=O)c2c(c(OC(C)=O)c3c(OC(C)=O)c(OC)cc(OC(C)=O)c3c2OC(C)=O)C1=O (stereo not shown) | 98.3

Bench note: what remaining at 6 h did C/C=C/C=C/c1cc2cc3c(c(O)c2c(=O)[nH]1)C1(CC3)C(=O)c2c(OC(=O)CCCCC)c3c(c(OC(=O)CCCCC)c2C1=O)C(=O)C(OC)=CC3=O (stereo not shown) show?
88

---

Quick reference for response vs control in vivo at 2 mg/kg/day among some compounds
Test system: Ehrlich carcinoma
EXPERIMENTAL_PROTOCOL: Antitumor effect, survival of tumor-inoculated mice
Type: in vivo, ICR mice
EXPERIMENTAL_PARAMETERS: Mus musculus, ip, 240 h, 2.0 mg/kg/day, intraperitoneally, once a day for 10 days, read-out: percentage of mean survival time of test and control animals
Provide the reading as a plain figure in %.

CCCCCc1cc2cc3c(c(O)c2c(=O)[nH]1)C1(CC3)C(=O)c2c(OC(C)=O)c3c(c(OC(C)=O)c2C1=O)C(=O)C(OC)=CC3=O (stereo not drawn) [Compound 18, diacetyltetrahydrofredericamycin A] | 125
CCCCCc1cc2cc3c(c(O)c2c(=O)[nH]1)C1(CC3)C(=O)c2c(c(OC(C)=O)c3c(OC(C)=O)c(OC)cc(OC(C)=O)c3c2OC(C)=O)C1=O (stereo not drawn) | 116

Bench note: what response vs control in vivo at 2 mg/kg/day did C/C=C/C=C/c1cc2cc3c(c(O)c2c(=O)[nH]1)C1(CC3)C(=O)c2c(OC(=O)c3ccccc3)c3c(c(OC(=O)c4ccccc4)c2C1=O)C(=O)C(OC)=CC3=O (stereo not drawn) show?
97

---

Quick reference for remaining at 72 h among some molecules
EXPERIMENTAL_PROTOCOL: physchem
Assay type: physicochemical
EXPERIMENTAL_PARAMETERS: 72 hrs.; 10 μg/ml in dimethylsulfoxide/physiological saline; read-out: Percentage remainder
Method: The stability of some Fredericamycin A derivatives and Fredericamycin A in their aqueous solutions were tested in accordance with the following procedures. The test compounds were individually dissolved in dimethylsulfoxide, followed by dilution of the resulting solutions with physiological saline to adjust the final concentrations of the test compounds and Fredericamycin to 10 μg/ml respectively. […]
Provide the reading as a plain figure in %.

Worked examples follow.
CCCCCCCCCCCC(=O)Oc1c2c(c(OC(=O)CCCCCCCCCCC)c3c1C(=O)C1(CCc4cc5cc(CCCCC)[nH]c(=O)c5c(O)c41)C3=O)C(=O)C(OC)=CC2=O (stereo not shown) | 74.8
C/C=C/C=C/c1cc2cc3c(c(O)c2c(=O)[nH]1)C1(CC3)C(=O)c2c(OC(=O)CCCCC)c3c(c(OC(=O)CCCCC)c2C1=O)C(=O)C(OC)=CC3=O (stereo not shown) | 47.9
C/C=C/C=C/c1cc2cc3c(c(O)c2c(=O)[nH]1)C1(CC3)C(=O)c2c(O)c3c(c(O)c2C1=O)C(=O)C(OC)=CC3=O (stereo not shown) | 18.4

Now consider the entry below.
Bench note: what remaining at 72 h did CCCCCc1cc2cc3c(c(O)c2c(=O)[nH]1)C1(CC3)C(=O)c2c(c(OC(C)=O)c3c(OC(C)=O)c(OC)cc(OC(C)=O)c3c2OC(C)=O)C1=O (stereo not shown) show?
94.4

Values were extracted from patent US4584377A.
